Test system: SNK-6 (IL-2 2.5 ng/mL)
assayText: percent inhibition of viability; higher = more inhibition;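 also: normalised to DMSO-only wells as negative and benzethonium chloride as positive control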
details: 72 h; 1 nM
quantity: percent inhibition of viability (%)
Hi! Could you send only the number? It should be in %, unit omitted.

Use these answered entries as a reference point.
[
  {
    "molecule": "CN(C)c1cc2c(cc1Sc1nc3c(N)nccc3n1CCNCC(C)(C)C)OCO2 [CUDC-305] (max concentration tested 10000 nM)",
    "targetUnderTest": "SNK-6 (IL-2 2.5 ng/mL)",
    "unitText": "%",
    "percent inhibition of viability": -24.7
  },
  {
    "molecule": "CC(C)C[C@@H](C(=O)N[C@H](C(=O)OC1CCCC1)c1ccccc1)[C@H](O)C(=O)NO [Tosedostat] (max concentration tested 10000 nM)",
    "targetUnderTest": "SNK-6 (IL-2 2.5 ng/mL)",
    "unitText": "%",
    "percent inhibition of viability": 15.8
  },
  {
    "molecule": "Cc1[nH]c(/C=C2\\C(=O)Nc3ccccc32)c(C)c1CCC(=O)O [Orantinib] (max concentration tested 10000 nM)",
    "targetUnderTest": "SNK-6 (IL-2 2.5 ng/mL)",
    "unitText": "%",
    "percent inhibition of viability": -0.4
  },
  {
    "molecule": "Cn1cnc2c(F)c(Nc3ccc(Br)cc3Cl)c(C(=O)NOCCO)cc21 [Selumetinib] (max concentration tested 10000 nM)",
    "targetUnderTest": "SNK-6 (IL-2 2.5 ng/mL)",
    "unitText": "%",
    "percent inhibition of viability": -18.1
  },
  {
    "molecule": "CN1CCN(c2cc(C(=O)Nc3ccc4c(c3)-c3c(c(C(N)=O)nn3-c3ccc(F)cc3)CC4)c(Cl)cn2)CC1 [PHA 408] (max concentration tested 10000 nM)",
    "targetUnderTest": "SNK-6 (IL-2 2.5 ng/mL)",
    "unitText": "%",
    "percent inhibition of viability": -17.6
  }
]

Next molecule, please.
Challenge: Find percent inhibition of viability (SNK-6 (IL-2 2.5 ng/mL)) for the entry COc1cccc2c1c(O)c(C(=O)N(C)c1ccc(C(F)(F)F)cc1)c(=O)n2C [Tasquinimod] (max concentration tested 10000 nM)
Response given: -5.13

* * *

System: normal primary NK cells, pool 1 (3 donors) (IL-2 2.5 ng/mL)
assayText: percent inhibition of viability; higher = more inhibition
details: 72 h; 10000 nM
quantity: percent inhibition of viability (%)
Hi! Could you send only the number? It should be in %, unit omitted.

Use these answered entries as a reference point.
[
  {
    "compound": "Oc1ncc(N(CCCl)CCCl)c(O)n1 [Uracil mustard] (max concentration tested 10000 nM)",
    "quantity": "percent inhibition of viability",
    "unitText": "%",
    "testValue": 12.4
  },
  {
    "compound": "COc1cccc2c1c(O)c(C(=O)N(C)c1ccc(C(F)(F)F)cc1)c(=O)n2C [Tasquinimod] (max concentration tested 10000 nM)",
    "quantity": "percent inhibition of viability",
    "unitText": "%",
    "testValue": 5.24
  },
  {
    "compound": "O=C1NC(=O)/C(=C/c2ccc3nccc(-c4ccncc4)c3c2)S1 (max concentration tested 10000 nM)",
    "quantity": "percent inhibition of viability",
    "unitText": "%",
    "testValue": 58.9
  },
  {
    "compound": "COC(=O)C[C@](O)(CCCC(C)(C)O)C(=O)O[C@@H]1C(OC)=C[C@]23CCCN2CCc2cc4c(cc2[C@H]13)OCO4 [Omacetaxine] (max concentration tested 10000 nM)",
    "quantity": "percent inhibition of viability",
    "unitText": "%",
    "testValue": 99
  },
  {
    "compound": "O=C(Nc1ccc2[nH]nc(-c3ccncc3)c2c1)[C@@H]1CCN(CC(=O)N2CCN(c3ccc(-c4ncccn4)cc3)CC2)C1 (max concentration tested 10000 nM)",
    "quantity": "percent inhibition of viability",
    "unitText": "%",
    "testValue": 47.8
  }
]

Challenge: Record request: percent inhibition of viability value, item O=C(O)CC1CC(c2ccccc2)=NO1 (stereo unspecified) [VGX-1027] (max concentration tested 10000 nM)
Response given: 11.4

Where do these numbers come from? They come from the supplement of paper PMC5908809.
